System: FLUV A/WSN/33
ASSAY TEXT: microbe, parasite or virus in culture
Assay type: cell-based, influenza A/WSN/33
PROTOCOL CONDITIONS: Influenza A virus, MDCK, read-out: PAV-431 EC50
PARAMETER: EC50

>>> value("COc1c(CNC(=O)c2cc(C3CC3)nn2C)cccc1OC(F)(F)F [PAV-431]")
"25 nM"

----------
Attribute: pEC50
System: HRV-16
ASSAY TEXT: HRV assay in H1-HeLa cells by TCID50
Format: cell-based, human rhinovirus 16
PROTOCOL CONDITIONS: Rhinovirus A, HRV16; HRV-16, MOI = 5, H1-HeLa cells, TCID50; read-out: EC50
pEC50: −log10 of the molar value.
PARAMETER: pEC50

>>> value("COc1cccc(CNC(=O)c2cc(C(C)(C)C)nn2C)c1OC [PAV-773]")
"> 6.00"
>>> value("COc1cccc(CNC(=O)c2cc(C3CC3)nn2C)c1OC [PAV-835]")
"> 6.00"

----------
ASSAY TEXT: in vivo
PROTOCOL CONDITIONS: rat
PARAMETER: bioavailability (%)

>>> value("COc1c(CNC(=O)c2cc(C3CC3)nn2C)cccc1OC(F)(F)F")
59

----------
Attribute: EC50
System: FLUV A/WSN/33
ASSAY TEXT: microbe, parasite or virus in culture
Assay type: cell-based, influenza A/WSN/33
PROTOCOL CONDITIONS: Influenza A virus, MDCK
PARAMETER: EC50

>>> value("COc1cccc(CNC(=O)c2cc(C3CC3)nn2C)c1OC [PAV-835]")
"< 1 µM"
>>> value("COc1cccc(CNC(=O)c2cc(C(C)(C)C)nn2C)c1OC [PAV-773]")
"< 1 µM"

----------
Test system: rabies virus CVS-11
ASSAY TEXT: microbe, parasite or virus in culture
Type: cell-based
PROTOCOL CONDITIONS: Rabies virus CVS-11, read-out: PAV-431 EC50
PARAMETER: EC50

>>> value("COc1c(CNC(=O)c2cc(C3CC3)nn2C)cccc1OC(F)(F)F [PAV-431]")
"> 400 nM"
